- measurementTarget: IRAK4 (Homo sapiens (Human), UniProt Q9NWZ3)
- Sequence (Q9NWZ3 whole entry): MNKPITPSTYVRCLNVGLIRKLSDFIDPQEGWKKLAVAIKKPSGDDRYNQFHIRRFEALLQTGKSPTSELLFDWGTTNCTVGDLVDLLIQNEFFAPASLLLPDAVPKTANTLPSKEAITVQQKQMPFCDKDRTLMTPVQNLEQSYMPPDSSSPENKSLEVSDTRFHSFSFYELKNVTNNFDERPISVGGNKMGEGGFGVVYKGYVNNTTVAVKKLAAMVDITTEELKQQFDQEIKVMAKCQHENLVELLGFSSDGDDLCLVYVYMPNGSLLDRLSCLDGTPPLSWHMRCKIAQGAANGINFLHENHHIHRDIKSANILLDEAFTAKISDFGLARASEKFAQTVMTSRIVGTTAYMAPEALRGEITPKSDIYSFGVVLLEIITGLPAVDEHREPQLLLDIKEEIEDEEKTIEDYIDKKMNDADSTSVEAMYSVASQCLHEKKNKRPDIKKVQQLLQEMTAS
- assay: IRAK4 Degradation HiBiT Assay
- recordedConditions: read-out: Cellular IRAK4 HiBiT: DC50; Table 4; HiBiT-tagged Jurkat cells, 4 hrs
The following compounds are shown together with reported DC50 values.
assayMetric: DC50 (nM)

>>> numericvalue("CN[C@@H](C)C(=O)N[C@H](C(=O)N1CCC[C@H]1c1nc(C(=O)c2cccc(OCCOCCC(=O)N3CCN(c4nnc(-c5cnc(-c6ccc7cc(C#N)cnn67)cc5NC(C)C)s4)CC3)c2)cs1)C1CCCCC1")
197
>>> numericvalue("Cc1ncsc1-c1ccc(CNC(=O)[C@@H]2C[C@@H](O)CN2C(=O)[C@@H](NC(=O)C2(F)CC2)C(C)(C)C)c(OCCOCCC(=O)N2CCN(c3nnc(-c4cnc(-c5ccc6cc(C#N)cnn56)cc4NC(C)C)s3)CC2)c1")
144
>>> numericvalue("CC(C)Nc1cc(-c2ccc3cc(C#N)cnn23)ncc1-c1nnc(N2CCN(C[C@H]3CCN(c4ccc5c(c4)C(=O)N(C4CCC(=O)NC4=O)C5=O)C3)CC2)s1 (some centres unmarked)")
90.1
>>> numericvalue("CNc1cc(-c2ccc3cc(C#N)cnn23)ncc1-c1nnc([C@H]2CC[C@H](NC(=O)CN3CCC4(CC3)CN(c3ccc5c(c3)C(=O)N(C3CCC(=O)NC3=O)C5=O)C4)CC2)s1 (some centres unmarked)")
17.3
>>> numericvalue("CC(C)Nc1cc(-c2ccc3cc(C#N)cnn23)ncc1-c1nnc(N2CCN(C(=O)CNc3cccc4c3C(=O)N(C3CCC(=O)NC3=O)C4=O)CC2)s1 (centres unmarked)")
106

----------
- measurementTarget: IRAK4 (Homo sapiens (Human))
- assay: IRAK4 Degradation HiBiT Assay
- recordedConditions: read-out: Cellular IRAK4 HiBiT: DC50; Table 5; multiple runs; HiBiT-tagged Jurkat cells, 4 hrs
assayMetric: DC50 (nM)

>>> numericvalue("CNc1cc(-c2ccc3cc(C#N)cnn23)ncc1-c1nnc(C23CCC(NC(=O)CCOCCC(=O)N[C@H](C(=O)N4C[C@H](O)C[C@H]4C(=O)NCc4ccc(-c5scnc5C)cc4)C(C)(C)C)(CC2)CC3)s1")
356
>>> numericvalue("CNc1cc(-c2ccc3cc(C#N)cnn23)ncc1-c1nnc([C@H]2CC[C@@H](NC(=O)CCOCCNc3cccc4c3C(=O)N(C3CCC(=O)NC3=O)C4=O)CC2)s1 (some centres unmarked)")
46.3
>>> numericvalue("Cc1ncsc1-c1ccc(CNC(=O)[C@@H]2C[C@@H](O)CN2C(=O)C(NC(=O)[C@H]2CC[C@H](C(=O)N3CCN(c4nnc(-c5cnc(-c6ccc7cc(C#N)cnn67)cc5NC(C)C)s4)CC3)CC2)C(C)(C)C)cc1 (some centres unmarked)")
2490
>>> numericvalue("CC(C)Nc1cc(-c2ccc3cc(C#N)cnn23)ncc1-c1nnc(N2CCC3(CCN(Cc4ccc5c(c4)C(=O)N(C4CCC(=O)NC4=O)C5=O)CC3)CC2)s1 (centres unmarked)")
64.9

----------
- measurementTarget: IRAK4 (Homo sapiens (Human), UniProt Q9NWZ3)
- assay: IRAK4 Degradation HiBiT Assay
- recordedConditions: read-out: IRAK4 HiBit DC50; C-terminal HiBiT-tagged Jurkat cells, 4 hrs; Tables 2-3
Recorded log10(DC50) for the following compounds
assayMetric: log10(DC50) (log10 of the value in nM)

>>> numericvalue("NC(=O)c1nn(-c2ccc(C(=O)NCCOCCOCCNc3cccc4c3C(=O)N(C3CCC(=O)NC3=O)C4=O)cc2)cc1NC(=O)c1coc(-c2ccnc(NCC(F)(F)F)c2)n1 (stereo not drawn) [Comparative Compound a2, reference compound]")
1.41
>>> numericvalue("Cc1ncsc1-c1ccc(CNC(=O)[C@@H]2C[C@@H](O)CN2C(=O)[C@@H](NC(=O)C2(F)CC2)C(C)(C)C)c(OCCOCCC(=O)N2CCN(c3nnc(-c4cnc(-c5ccc6cc(C#N)cnn56)cc4NC(C)C)s3)CC2)c1")
2.16
>>> numericvalue("CC[C@@H]1[C@H](F)C(=O)N[C@@H]1COc1ncc(C#CCN2CCC3(CC2)CCN(c2ncc(C(=O)N[C@H](C(=O)N4C[C@H](O)C[C@H]4C(=O)NCc4ccc(-c5scnc5C)cc4)C(C)(C)C)cn2)CC3)c2cc(C(N)=O)c(OC)cc12 [Comparative b1, reference compound]")
2.31
>>> numericvalue("CC(C)Nc1cc(-c2ccc3cc(C#N)cnn23)ncc1-c1nnc(N2CCN(C(=O)C3CCN(CC4CCN(c5ccc(-c6nn(C7CCC(=O)NC7=O)c(=O)n6C)cc5)CC4)CC3)CC2)s1 (stereo not drawn)")
2.51
>>> numericvalue("Cc1ncsc1-c1ccc(CNC(=O)[C@@H]2C[C@@H](O)CN2C(=O)[C@@H](NC(=O)CCCC(=O)N2CCN(c3nnc(-c4cnc(-c5ccc6cc(C#N)cnn56)cc4NC(C)C)s3)CC2)C(C)(C)C)cc1")
2.77
>>> numericvalue("CC(C)Nc1cc(-c2ccc3cc(C#N)cnn23)ncc1-c1nnc(N2CCN(C(=O)C3CCN(Cc4ccc5c(c4)C(=O)N(C4CCC(=O)NC4=O)C5=O)CC3)CC2)s1 (stereo not drawn)")
1.41
